The measurements presented in this section are drawn from patent US5523308A.

Quick note: these are Ki numbers for system: human alpha-thrombin (Homo sapiens, UniProt P00734)

compound	measure unit	Ki
CN(C)c1cccc2c(S(=O)(=O)N[C@@H](CCCNC(=N)N)C(=O)N3CCCCC3CCC(=O)c3nccs3)cccc12 (single isomer, unassigned) [Compound 26]	µM	38
CN[C@H](Cc1ccccc1)C(=O)N1CCC[C@H]1C(=O)N[C@H](CCCNC(=N)N)C(=O)c1nc2ccccc2s1 [Compound 2]	µM	0.0009
CN[C@H](Cc1ccccc1)C(=O)N1CCC[C@H]1C(=O)N[C@@H](CCCCNC(=N)N)C(=O)c1nc2ccccc2s1 [Compound 11]	µM	0.42

###

Conditions: rat, in vivo, iv
We begin with a simple list: items and their reported t1/2 (time to half plasma elimination).

compound	t1/2 (time to half plasma elimination)
CNC(C(=O)N1CCCC1C(=O)NC(CCCNC(=N)N)C(=O)c1nc2ccccc2s1)c1ccccc1 (stereo not drawn)	18 min
CN[C@H](Cc1ccccc1)C(=O)N1CCC[C@H]1C(=O)N[C@@H](CCCNC(=N)N)C(=O)c1nc2ccc3ccccc3c2s1	8 min
CC(=O)N[C@H](Cc1ccccc1)C(=O)N1CCC[C@H]1C(=O)N[C@@H](CCCNC(=N)N)C(=O)c1nc2ccccc2s1.O=C(O)C(F)(F)F	11 min

###

Biological target: Bovine type 1 trypsin (Bos taurus)
Sequence (P00760 24-246): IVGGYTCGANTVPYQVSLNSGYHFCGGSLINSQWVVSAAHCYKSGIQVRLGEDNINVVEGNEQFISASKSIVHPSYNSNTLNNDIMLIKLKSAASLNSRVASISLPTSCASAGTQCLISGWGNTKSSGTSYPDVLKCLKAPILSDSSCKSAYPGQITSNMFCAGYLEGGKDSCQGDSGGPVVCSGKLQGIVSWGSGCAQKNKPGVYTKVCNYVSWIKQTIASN

compound	measure unit	Ki
CC1CNc2c(cccc2S(=O)(=O)N[C@@H](CCCNC(=N)N)C(=O)N2CC[C@@H](C)C[C@@H]2C(=O)O)C1 (stereo partly drawn) [Argatroban, reference compound]	nM	2900
CN[C@H](Cc1ccccc1)C(=O)N1CCC[C@H]1C(=O)N[C@@H](CCCCNC(=N)N)C(=O)c1nc2ccccc2s1	nM	6010
CN[C@H](Cc1ccccc1)C(=O)N1CCC[C@H]1C(=O)N[C@H](C=O)CCCNC(=N)N [reference compound]	nM	3.9

###

Target: Bovine type 1 trypsin (Bos taurus, UniProt P00760)
Construct: purchased Sigma
Assay: Trypsin-catalyzed hydrolysis of chromogenic substrate Spectrozyme TRY (in vitro enzyme assay)
Assay type: biochemical
Details: 3.2 U/ml trypsin, 0.1-0.3 mM Spectrozyme TRY; read-out: Trp IC50
readout type: IC50

compound	system tested	reported value
CNC(Cc1ccccc1)C(=O)N1CCCC1C(=O)NC(CCCNC(=N)N)C(=O)c1nccs1 (stereo not shown) [Compound 4]	Bovine type 1 trypsin (Bos taurus, UniProt P00760)	6 nM
CCOC(=O)c1csc(C(=O)[C@H](CCCNC(=N)N)NC(=O)[C@@H]2CCCN2C(=O)[C@@H](Cc2ccccc2)NC)n1 [Compound 19]	Bovine type 1 trypsin (Bos taurus, UniProt P00760)	5 nM
N=C(N)NCCC[C@H](NC(=O)[C@@H]1CCCN1C(=O)C(N)(c1ccccc1)c1ccccc1)C(=O)c1nc2ccccc2s1 [Compound 46]	Bovine type 1 trypsin (Bos taurus, UniProt P00760)	3 nM
N=C(N)NCCC[C@H](NC(=O)C1CCCC1)C(=O)c1nc2ccccc2s1 [Compound 31]	Bovine type 1 trypsin (Bos taurus, UniProt P00760)	80 nM
CN[C@H](Cc1ccccc1)C(=O)N1CCC[C@H]1C(=O)N[C@@H](CCCNC(=N)N)C(=O)c1nc2ccc(CO)cc2s1 [Compound 15]	Bovine type 1 trypsin (Bos taurus, UniProt P00760)	3 nM
CN[C@H](Cc1ccccc1)C(=O)N1CCC[C@H]1C(=O)N[C@@H](CCCNC(=N)N)C(=O)c1nc2ccc(C(=O)OC)cc2s1 [Compound 12]	Bovine type 1 trypsin (Bos taurus, UniProt P00760)	3 nM
CN[C@H](Cc1ccccc1)C(=O)N1CCC[C@H]1C(=O)N[C@@H](CCCNC(=N)N)C(=O)c1nc(C(=O)O)cs1 [Compound 54]	Bovine type 1 trypsin (Bos taurus, UniProt P00760)	13 nM
CN[C@H](Cc1ccccc1)C(=O)N1CCC[C@H]1C(=O)N[C@@H](CCCNC(=N)N)C(=O)c1nc(C(=O)NCCc2ccccc2)cs1 [Compound 55]	Bovine type 1 trypsin (Bos taurus, UniProt P00760)	8.6 nM
CCOC(=O)c1csc(C(=O)[C@H](CCCNC(=N)N)NC(=O)[C@@H]2CCCN2C(=O)[C@@H](Cc2ccccc2)NC)n1 [Compound 20]	Bovine type 1 trypsin (Bos taurus, UniProt P00760)	58 nM
CC(=O)N[C@H](Cc1ccccc1)C(=O)N1CCC[C@H]1C(=O)N[C@@H](CCCNC(=N)N)C(=O)c1nc2ccccc2s1.O=C(O)C(F)(F)F [Compound 35]	Bovine type 1 trypsin (Bos taurus, UniProt P00760)	2 nM
CN[C@@H](C(=O)N1CCC[C@H]1C(=O)N[C@@H](CCCNC(=N)N)C(=O)c1nc2ccccc2s1)C1CCCCC1 [Compound 37]	Bovine type 1 trypsin (Bos taurus, UniProt P00760)	1 nM
CN[C@H](Cc1ccccc1)C(=O)N1CCC[C@H]1C(=O)N[C@@H](CCCNC(=N)N)C(=O)c1nc2ccccc2c(=O)[nH]1 [Compound 24]	Bovine type 1 trypsin (Bos taurus, UniProt P00760)	14 nM
CN[C@H](Cc1ccccc1)C(=O)N1CCC[C@H]1C(=O)N[C@@H](Cc1ccc(C(=N)N)cc1)C(=O)c1nc2ccccc2s1 [Compound 57]	Bovine type 1 trypsin (Bos taurus, UniProt P00760)	182 nM

###

Target: Bovine type 1 trypsin (Bos taurus, UniProt P00760)
Construct: purchased Sigma
Assay: Trypsin-catalyzed hydrolysis of chromogenic substrate Spectrozyme TRY (in vitro enzyme assay)
Type: biochemical
Conditions: 3.2 U/ml trypsin, 0.1-0.3 mM Spectrozyme TRY; read-out: Trp IC50
pIC50: −log10 of the molar value.
Returns one of condition met or condition not met; condition met when pIC50 is >= 8.

compound	assigned category
CN[C@H](Cc1ccccc1)C(=O)N1CCC[C@H]1C(=O)N[C@@H](CCCNC(=N)N)C(=O)c1nc2ccc(F)cc2s1 [Compound 18]	condition not met
CNC(Cc1ccccc1)C(=O)N1CCCC1C(=O)NC(CCCNC(=N)N)C(=O)c1nc2ccccc2[nH]1 (stereo not shown)	condition not met
C[C@@](N)(Cc1ccccc1)C(=O)N1CCC[C@H]1C(=O)N[C@@H](CCCNC(=N)N)C(=O)c1nc2ccccc2s1	condition met
CN[C@H](Cc1ccccc1)C(=O)N1CCC[C@H]1C(=O)N[C@@H](CCCNC(=N)N)C(=O)c1nc2ccc(F)cc2s1 [Compound 17]	condition met
CN[C@H](Cc1ccccc1)C(=O)N1CCC[C@H]1C(=O)N[C@@H](CCCNC(=N)N)C(=O)c1nccn1C	condition not met

###

We begin with a simple list: items and their reported IC50.
Biological target: human alpha-thrombin (Homo sapiens)

compound	measure unit	IC50
CN[C@H](Cc1ccccc1)C(=O)N1CCC[C@H]1C(=O)N[C@@H](CCCNC(=N)N)C(=O)c1nccn1C	nM	1520
CCOC(=O)c1csc(C(=O)[C@H](CCCNC(=N)N)NC(=O)[C@@H]2CCCN2C(=O)[C@@H](Cc2ccccc2)NC)n1 [Compound 19]	nM	26
CCOC(=O)c1csc(C(=O)[C@H](CCCNC(=N)N)NC(=O)[C@@H]2CCCN2C(=O)[C@@H](Cc2ccccc2)NC)n1 [Compound 20]	nM	450
CN[C@H](Cc1ccccc1)C(=O)N1CCC[C@H]1C(=O)N[C@@H](CCCNC(=N)N)C(=O)c1nc2ccccc2c(=O)[nH]1	nM	106
CN[C@H](Cc1ccccc1)C(=O)N1CCC[C@H]1C(=O)N[C@@H](CCCNC(=N)N)C(=O)c1nc(C(=O)O)cs1	nM	110
CN[C@H](Cc1ccccc1)C(=O)N1CCC[C@H]1C(=O)N[C@@H](CCCNC(=N)N)C(=O)c1nc2c(s1)CCCC2	nM	17
CNC(Cc1ccccc1)C(=O)N1CCCC1C(=O)NC(CCCNC(=N)N)C(=O)c1nc2ccccc2[nH]1 (centres unmarked)	nM	24
CN[C@H](Cc1ccccc1)C(=O)N1CCC[C@H]1C(=O)N[C@@H](CCCNC(=N)N)C(=O)c1ccccn1	nM	928

###

We begin with a simple list: items and their reported t1/2 (time to half plasma elimination).
Conditions: rat, in vivo, iv
readout type: t1/2 (time to half plasma elimination) (min)

1. CN[C@H](Cc1c(F)c(F)c(F)c(F)c1F)C(=O)N1CCC[C@H]1C(=O)N[C@@H](CCCNC(=N)N)C(=O)c1nc2ccccc2s1 6
2. CN[C@H](Cc1ccccc1)C(=O)N1CCC[C@H]1C(=O)N[C@@H](CCCNC(=N)N)C(=O)c1nc2ccc(F)cc2s1 8
3. CN[C@H](Cc1ccccc1)C(=O)N1CCC[C@H]1C(=O)N[C@@H](CCCNC(=N)N)C(=O)c1nc2c(s1)CCCC2 17
